Readings of Kd for the listed binders
# measured.target: T1, N-terminal biotinylated PE9413 (not fully specified; N-terminal biotin)
# T1 construct: also called PE9411; N-ter PE9413
# T1 peptide: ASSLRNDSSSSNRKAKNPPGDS
# test: yeast-displayed scFv, flow cytometry titration of N-terminal biotinylated peptide
Field: numeric (nM). Do not append units.

For the binder shown here, A104P scFv displayed on yeast (scFv, V domains shown, Aga2-anchored, VH-VL orientation; not shown: linker; SV5 tag) VH: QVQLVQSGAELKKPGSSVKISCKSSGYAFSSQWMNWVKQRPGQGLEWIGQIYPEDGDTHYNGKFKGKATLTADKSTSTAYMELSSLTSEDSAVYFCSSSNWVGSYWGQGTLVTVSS VL: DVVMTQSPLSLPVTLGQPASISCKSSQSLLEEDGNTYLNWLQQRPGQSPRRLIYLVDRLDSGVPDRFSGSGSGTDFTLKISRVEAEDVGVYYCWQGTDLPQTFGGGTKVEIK , give the reported Kd. 5.85

For the binder shown here, B114P scFv displayed on yeast (scFv, V domains shown, Aga2-anchored, VH-VL orientation; not shown: linker; SV5 tag) VH: QVQLVQSGAELKKPGSSVKISCKSSGYAFSSQWMNWVKQRPGQGLEWIGQIYPEDGDTHMNGKFKGKATLTADKSTSTAYMELSSLTSEDSAVYFCSSSNWDGSYWGQGTLVTVSS VL: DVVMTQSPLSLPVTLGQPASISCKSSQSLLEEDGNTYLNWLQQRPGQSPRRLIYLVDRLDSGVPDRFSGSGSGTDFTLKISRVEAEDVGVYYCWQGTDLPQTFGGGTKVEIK , give the reported Kd. 7.14

For the binder shown here, F54P scFv displayed on yeast (scFv, V domains shown, Aga2-anchored, VH-VL orientation; not shown: linker; SV5 tag) VH: QVQLVQSGAELKKPGSSVKISCKSSGYAFSSQWMNWVKQRPGQGLEWIGQIYPEDGDTHMNGKFKTKATLTADKSTSTAYMELSSLTSEDSAVYFCSSSNWVGSYWGQGTLVTVSS VL: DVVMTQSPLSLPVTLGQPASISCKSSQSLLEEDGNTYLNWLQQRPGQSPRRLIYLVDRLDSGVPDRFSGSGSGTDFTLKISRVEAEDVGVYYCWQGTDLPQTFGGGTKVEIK , give the reported Kd. 5.66
